# subject.of.test: T1, Soluble IGF-1R (R&D Systems, Cat. # 391-GR/CF); recombinant human IGF-1R (human, UniProt P08069 31-935)
# T1 construct: extracellular domain; Eu3+-labelled in the TR-FRET assays; also called sIGF-1R; rhIGF-1R
# procedure.summary: phage ELISA vs milk
No end group written: not given here.
reported.metric: Ratio over Background (fold)

binder	reported.metric	unit.spec	experimental.result
SRAKVEAEMPDSGDPFYHKLSELLASG [B6Hα-1-A3-IR]	Ratio over Background	fold	2.6
FRTLAAQHDSFYDWFDRQVSGAAGER [H2CA-3-C11-IGFR]	Ratio over Background	fold	3.3
CCLLCRFQQNFYDWFVCQGISRLRPL (disulfide (positions not given here); also: disulfide among the four cysteines, pairing not given here) [X2CA-2-B4-IGFR]	Ratio over Background	fold	4.1
LGVTDGFYAALGYLIHGVGQF [20E2B-3-D11-IGFR]	Ratio over Background	fold	12.2
